# System: Mycobacterium tuberculosis
# experimental_details: Inhibition of Mycobacterium tuberculosis Zinc metalloprotease-1 at 40 uM using angiotensin 2 as substrate preincubated for 3 mins and measured after 20 mins by MALDI-TOF MS analysis relative to control
measured_quantity: inhibition (%)
Note: unit % is implicit; provide only the numeric part.

Solved entries (count: 3):
CCCC/C=C1\SC(=O)N(C(C)C(=O)NOCc2ccccc2)C1=O (centres undefined)    37.1
C=CCONC(=O)CN1C(=O)S/C(=C\c2ccc(F)cc2)C1=O    69.8
C=CCONC(=O)CN1C(=O)S/C(=C\c2ccc(C(F)(F)F)cc2)C1=O    87.2

--- query ---
Ask: Lab note: need inhibition with Mycobacterium tuberculosis for entry C=CCONC(=O)C(C)N1C(=O)S/C(=C\c2ccc(C(F)(F)F)cc2)C1=O (centres undefined) , please look it up.
Result: 44.5
